# measured target: UniProtKB Q13822
# assay text: ATX enzyme inhibition assay (Amplex UltraRed/choline oxidase/HRP, 16:0 Lyso PC substrate)
# Type: biochemical
# experimental conditions: assay buffer pH 8.5; read-out: IC50 (nM) pH 8.5
readout type: IC50 (nM)

>  <compound>
CN(c1nc(-c2ccc(F)cc2)c(C#N)s1)c1c2c(nc3c(F)cc(N4CC5(CN(C(=O)C6(O)CCOCC6)C5)C4)cc13)[C@@H](O)CC2 (single isomer, unassigned)

>  <IC50 (nM)>
14.9

$$$$
>  <compound>
CN(c1nc(-c2ccc(F)cc2)c(C#N)s1)c1c2c(nc3ccc(N4CC5(CN(C(=O)[C@H]6CCOC6)C5)C4)nc13)CCO2

>  <IC50 (nM)>
18.6

$$$$
>  <compound>
CN(c1nc(-c2ccc(F)cc2)c(C#N)s1)c1c2c(nc3c(F)cc(N4CC5(CN(C(=O)C(C)(C)O)C5)C4)cc13)[C@@H](O)CC2 (single isomer, unassigned)

>  <IC50 (nM)>
20.1

$$$$

====

# Tested on: plasma LPA 18:1 and LPA 18:2
# assay text: Human plasma ex vivo assay (LPA 18:1 / 18:2 by LC-MS/MS)
# Type: biochemical
# experimental conditions: 37° C., 2 hours, LPA 18:1, read-out: Human plasma ex vivo assay IC50 (18:1 LPA)
pIC50: −log10 of the molar value.
readout type: pIC50

>  <compound>
CN(c1nc(-c2ccc(F)cc2)c(C#N)s1)c1c2c(nc3c(F)cc(N4CC5(CN(C(=O)C(C)(C)O)C5)C4)cc13)C(C)(O)CC2 (stereo not drawn) [Example E35]

>  <readout type>
pIC50

>  <value measured>
6.52

$$$$

[P] CN(c1nc(-c2ccc(F)cc2)c(C#N)s1)c1c2c(nc3c(F)cc(N4CC5(CN(C(=O)[C@@H]6CCOC6)C5)C4)cc13)CC2 [Example C8]
[Q] CN(c1nc(-c2ccc(F)cc2)c(C#N)s1)c1c2c(nc3c(F)cc(N4CC5(CN(C(=O)C(C)(C)O)C5)C4)cc13)[C@](C)(O)CC2 (single isomer, unassigned) [Example E35-b]
Of P and Q , whose reported pIC50 is the larger number? Identify your selection by its label. P

[I] CN(c1nc(-c2ccc(F)cc2)c(C#N)s1)c1c2c(nc3c(F)cc(N4CCN(C(=O)[C@@H]5CCOC5)CC4)cc13)CCC2 [Example C6]
[II] CN(c1nc(-c2ccc(F)cc2)c(C#N)s1)c1c2c(nc3ccc(N4CC5(CN(C(=O)[C@H]6CCOC6)C5)C4)nc13)CCO2 [Example C10]
Of I and II , whose reported pIC50 is the larger number? Identify your selection by its label. II
(II: 6.83, I: 6.63)

====

# measured target: ATX (Homo sapiens (Human))
# assay text: ATX enzyme inhibition assay (Amplex UltraRed/choline oxidase/HRP, 16:0 Lyso PC substrate)
# Type: biochemical
# experimental conditions: assay buffer pH 8.5; read-out: IC50 (nM) pH 8.5
readout type: IC50 (nM)

Field: example entries. Status: answers known.
>  <compound>
CN(c1nc(-c2ccc(F)cc2)c(C#N)s1)c1c2c(nc3c(F)cc(N4CCN(CC(=O)N5CC6(CCC(O)CC6)C5)CC4)cc13)CC2

>  <IC50 [nM]>
19.9

$$$$
>  <compound>
CN(c1nc(-c2ccc(F)cc2)c(C#N)s1)c1c2c(nc3c(F)cc(N4CC5(CN(C(=O)[C@H]6CCOC6)C5)C4)cc13)[C@@H](O)CC2 (single isomer, unassigned)

>  <IC50 [nM]>
23.7

$$$$
>  <compound>
CN(c1nc(-c2ccc(F)cc2)c(C#N)s1)c1c2c(nc3c(F)cc(N4CCN(CC(=O)NO)CC4)cc13)CC2

>  <IC50 [nM]>
44.9

$$$$
>  <compound>
CN(c1nc(-c2ccc(F)cc2)c(C#N)s1)c1c2c(nc3c(F)cc(N4CC5(CN(CC(=O)N6CC(CO)C6)C5)C4)cc13)CCO2

>  <IC50 [nM]>
111

$$$$
>  <compound>
CN(c1nc(-c2ccc(F)cc2)c(C#N)s1)c1c2c(nc3c(F)cc(N4CCN(CC(=O)N5CC(O)C5)CC4)cc13)CCC2

>  <IC50 [nM]>
52.1

$$$$

[A] CN(c1nc(-c2ccc(F)cc2)c(C#N)s1)c1c2c(nc3c(F)cc(N4CC5(CN(C(=O)[C@@H]6CCOC6)C5)C4)cc13)CCO2
[B] CN(c1nc(-c2ccc(F)cc2)c(C#N)s1)c1c2c(nc3c(F)cc(N4CC5(CN(C(=O)C6CCOCC6)C5)C4)cc13)[C@@H](O)CC2 (single isomer, unassigned)
[C] CN(c1nc(-c2ccc(F)cc2)c(C#N)s1)c1c2c(nc3ccc(N4CCN(CC(=O)N5CC(O)C5)CC4)cc13)COC2
[D] CN(c1nc(-c2ccc(F)cc2)c(C#N)s1)c1c2c(nc3c(F)cc(N4CC5(CN(C(=O)[C@H]6COC[C@@H]6O)C5)C4)cc13)[C@@H](O)CC2 (single isomer, unassigned)
[E] CN(c1nc(-c2ccc(F)cc2)c(C#N)s1)c1c2c(nc3c(F)cc(N4CCN(S(C)(=O)=O)[C@H](CO)C4)cc13)CCC2
Rank by IC50 (largest to smallest). Respond with the label ranking, as requested. C, A, E, D, B
(C: 96.7 nM, A: 61.9 nM, E: 41.2 nM, D: 25.7 nM, B: 16.6 nM)
